Target: DNA gyrase (Escherichia coli, UniProt P0AES4+P0AES6)
Test: In vitro antibacterial activity was determined as inhibitory concentration causing 50% DNA-gyrase supercoiling inhibition (SCI)
Type: protein-complex assay
pIC50: −log10 of the molar value.
property measured: pIC50

In [3]: df
Out[3]:
                                    compound  modifier  observed
 0      O=c1cc(-c2ccc(O)cc2)oc2cc(O)cc(O)c12         =      3.60
 1  O=c1oc2c(O)c(O)cc3c(=O)oc4c(O)c(O)cc1c4c23         =      4.96
 2  COc1cc(-c2oc3cc(O)cc(O)c3c(=O)c2O)cc(OC)c1OC         <      2.86
 3   O=c1c(O)c(-c2ccc(O)c(O)c2)oc2cc(O)ccc12         =      3.54
 4  O=c1cc(-c2ccccc2)oc2c(O)c(O)ccc12 [7,8-DIHYDROXYFLAVONE]         =      3.45
 5         O=c1cc(-c2ccccc2)oc2cc(O)cc(O)c12         <      2.71
 6     COc1cccc(-c2cc(=O)c3c(O)cc(O)cc3o2)c1         <      2.75
 7            O=c1c(O)c(-c2ccccc2)oc2ccccc12         <      2.68
 8      O=c1c(O)c(-c2ccccc2)oc2cc(O)cc(O)c12         <      2.73
 9  O=c1c(O)c(-c2cc(O)c(O)c(O)c2)oc2cc(O)cc(O)c12         =      3.15
10       COc1cc2oc(-c3ccccc3)cc(=O)c2c(O)c1O         <      2.75
11  O=c1c(O)c(-c2cc(O)cc(O)c2)oc2cc(O)cc(O)c12         =      2.86
12  COc1ccc(-c2oc3cc(O)cc(O)c3c(=O)c2O)cc1 [KAEMPFERIDE]         <      2.78

---

MIC values, listed per item
System: Staphylococcus aureus
Assay: Tested for antibacterial activity as minimum inhibitory concentration against Staphylococcus aureus strain OC6538
Format: functional
Conditions: Staphylococcus aureus; read-out: MIC
property measured: MIC

>>> df
                                   compound                    tgt     observed
0  O=c1oc2c(O)c(O)cc3c(=O)oc4c(O)c(O)cc1c4c23 [ELLAGIC ACID]  Staphylococcus aureus  > 125 µg/mL
1  O=c1c(O)c(-c2ccccc2)oc2ccccc12 [FLAVONOL]  Staphylococcus aureus  > 125 µg/mL
2  COc1cc(-c2oc3cc(O)cc(O)c3c(=O)c2O)cc(OC)c1OC  Staphylococcus aureus  > 125 µg/mL
3  CCn1cc(C(=O)O)c(=O)c2ccc(C)nc21 [NALIDIXIC ACID]  Staphylococcus aureus    500 µg/mL
4  O=c1c(O)c(-c2cc(O)c(O)c(O)c2)oc2cc(O)cc(O)c12 [MYRICETIN]  Staphylococcus aureus    125 µg/mL

---

System: Staphylococcus aureus
Experiment: Tested for antibacterial activity as minimum inhibitory concentration against Staphylococcus aureus strain OC6538
Assay type: functional
Details: Staphylococcus aureus; read-out: MIC
# MIC annotations
property measured: MIC

>>> df
                        structure_as_smiles  property_measured    observed
0  O=c1c(O)c(-c2cc(O)cc(O)c2)oc2cc(O)cc(O)c12                MIC    500 mg/L
1         O=c1cc(-c2ccccc2)oc2cc(O)cc(O)c12                MIC  > 125 mg/L
2      O=c1c(O)c(-c2ccccc2)oc2cc(O)cc(O)c12                MIC  > 125 mg/L
3      O=c1cc(-c2ccc(O)cc2)oc2cc(O)cc(O)c12                MIC  > 125 mg/L
4       COc1cc2oc(-c3ccccc3)cc(=O)c2c(O)c1O                MIC  > 125 mg/L
5     COc1cccc(-c2cc(=O)c3c(O)cc(O)cc3o2)c1                MIC  > 125 mg/L
